Parameter: MFI. Scope: all listed entries.
- SYSTEM_UNDER_TEST: T1, human ROR1 (hROR1) on cells (human, UniProt Q01973 30-937)
- T1 construct: whole, on cells; the cell line is named under assay; also called HEK293T-hROR1; 293T-hROR1
- ASSAY_INFO: FACS, HEK293T-hROR1 cells; also: test concentration or dose not given here
Express it in MFI; write the number only.

>  <BINDER>
PR002564 (antibody, human IgG1, kappa, V domains shown, PR001354 variant: VH D54E; hIgG1; also called anti-ROR1 1015M2-C9(H: D54E) hIgG1) VH: QVQLVQSGGGVVQPGRSLRLSCAASGFTFSSYGMHWVRQAPGKGLEWVAIMWYEGSDKDYADSVKGRFTISRDTSKNTLYLQMNSLRAEDTAVYYCAREQARSFDLWGRGTLVTVSS VL: DIVMTQSPSSLSASVGDRVTITCRASQTINNWLAWYQQKPGKAPKLLIYKASSLESGVPSRFSGSGSGTEFTLTISSLQPDDFATYYCQQYNSYSPMYTFGQGTKVEIKR

>  <READOUT_KIND>
MFI

>  <UNIT_NAME>
MFI

>  <RESULT_VALUE>
43200

$$$$
>  <BINDER>
PR001354 (antibody, human IgG1, kappa, V domains shown, fully human IgG1, kappa; also called anti-ROR1 1015M2-C9 hIgG1; PR001354(WT)) VH: QVQLVQSGGGVVQPGRSLRLSCAASGFTFSSYGMHWVRQAPGKGLEWVAIMWYDGSDKDYADSVKGRFTISRDTSKNTLYLQMNSLRAEDTAVYYCAREQARSFDLWGRGTLVTVSS VL: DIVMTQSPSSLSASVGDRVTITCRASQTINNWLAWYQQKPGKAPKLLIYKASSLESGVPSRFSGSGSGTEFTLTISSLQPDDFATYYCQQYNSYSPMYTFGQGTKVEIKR

>  <READOUT_KIND>
MFI

>  <UNIT_NAME>
MFI

>  <RESULT_VALUE>
42800

$$$$
>  <BINDER>
PR002563 (antibody, human IgG1, kappa, V domains shown, PR001354 variant: VL S93A; hIgG1; also called anti-ROR1 1015M2-C9(L: S93A) hIgG1) VH: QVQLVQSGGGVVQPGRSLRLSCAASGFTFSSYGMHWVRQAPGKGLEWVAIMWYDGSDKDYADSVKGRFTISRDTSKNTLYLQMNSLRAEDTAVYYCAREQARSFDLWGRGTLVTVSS VL: DIVMTQSPSSLSASVGDRVTITCRASQTINNWLAWYQQKPGKAPKLLIYKASSLESGVPSRFSGSGSGTEFTLTISSLQPDDFATYYCQQYNAYSPMYTFGQGTKVEIKR

>  <READOUT_KIND>
MFI

>  <UNIT_NAME>
MFI

>  <RESULT_VALUE>
43800

$$$$
>  <BINDER>
PR002566 (antibody, human IgG1, kappa, V domains shown, PR001354 variant: VH D54E, VL S93A; hIgG1; also called anti-ROR1 1015M2-C9(H: D54E; L: S93A) hIgG1) VH: QVQLVQSGGGVVQPGRSLRLSCAASGFTFSSYGMHWVRQAPGKGLEWVAIMWYEGSDKDYADSVKGRFTISRDTSKNTLYLQMNSLRAEDTAVYYCAREQARSFDLWGRGTLVTVSS VL: DIVMTQSPSSLSASVGDRVTITCRASQTINNWLAWYQQKPGKAPKLLIYKASSLESGVPSRFSGSGSGTEFTLTISSLQPDDFATYYCQQYNAYSPMYTFGQGTKVEIKR

>  <READOUT_KIND>
MFI

>  <UNIT_NAME>
MFI

>  <RESULT_VALUE>
43300

$$$$

Just so you know, measured MFI for PR002586 (antibody, human IgG1, kappa, V domains shown, PR001369 variant: VH G55A, VL N92Q; hIgG1; also called anti-ROR1 1015M3-H10(H: G55A; L: N92Q) hIgG1) VH: QVQLVESGGGVVQPGRSLRLSCAASGFTFSNYGIHWVRQAPGKGLEWVAIMWYDASNTDYADSVKGRFTISRDTSKNTLFLQMNSLRAEDTAVYYCAREQARSFDLWGRGTLVTVSS VL: DIVMTQSPSTLSASVGDRVTITCRASQTINNWLAWYQQKPGKAPKLLIYKASSLESGVPSRFSGSGSGTEFTLTISSLQPDDFATYYCQQYQSYSPMYTFGQGTKVEIKR came out at 41900

Provenance of the data: patent US20240010721A1
